- System: HepG2 cells transduced with AdCYP1A2
- assay-explanation: HCS hepatotoxicity assay (MEC, TR), AdCYP1A2-HepG2
- Type: cell-based, human
- applied-conditions: AdCYP 1A2 1x; 24 h; unit inferred, tested range in µM

| compound | MEC ROS, µM |
| --- | --- |
| CC(C)C(=O)Nc1ccc([N+](=O)[O-])c(C(F)(F)F)c1 [Flutamide] | 500 |

* * *

- System: HepG2 cells transduced with AdCYP2D6
- assay-explanation: HCS hepatotoxicity assay (MEC, TR), AdCYP2D6-HepG2
- Assay type: cell-based, human
- applied-conditions: AdCYP 2D6 4x; 24 h; unit inferred, tested range in µM

| compound | test-system | MEC Lipids |
| --- | --- | --- |
| C1CCC(C(CC2CCCCN2)C2CCCCC2)CC1 (stereo not shown) [Perhexiline] | HepG2 cells transduced with AdCYP2D6 | > 27.5 µM |
